Tested on: SN12C renal
METHOD SUMMARY: NCI tumour cell line growth inhibition, 48 h

COMPOUND	TGI
Nc1nc(OCc2cc(Br)cs2)c2[nH]cnc2n1	> 100 µM
S=C1CC(c2ccccc2)Sc2ccccc2N1 (stereo unspecified)	> 100 µM
CC(NC(=O)C(N)CC(=O)O)NC(=O)C1CCC1 (stereo unspecified)	> 100 µM
O=C(c1ccccc1)[C@H]1Nc2ccc(Cl)cc2C2c3ccccc3CC21 (stereo partly specified)	> 100 µM
COc1cc(OC)c(/C=C\c2ccnc3ccccc23)c(OC)c1	16.3 µM
COc1cc(OC)c(/C=C\c2cc(/C=C/c3c(OC)cc(OC)cc3OC)c3ccccc3[n+]2C)c(OC)c1	9.8 µM
COc1ccc(C(=O)COC(=O)[C@H](C[Se][Se]C[C@H](NC(=O)c2ccc(Br)cc2F)C(=O)OCC(=O)c2ccc(OC)cc2)NC(=O)c2ccc(Br)cc2F)cc1	2.49 µM
CS(=O)(=O)Nc1ccc(-c2cc(-c3ccccc3)cc(C(N)=O)c2N)cc1	> 25 µM
COc1cc(S(=O)(=O)Nc2ccc(-c3csc(N)n3)cc2)ccc1Cl	38.5 µM
CC(=O)Nc1ccc(-c2nc3ccccc3s2)cc1I	> 100 µM
CCOC(=O)CSc1nnc2cc(CN3CCCC3)c(-c3ccc(Cl)cc3)nn12	> 100 µM

====

System: NCI-H226 lung
METHOD SUMMARY: NCI tumour cell line growth inhibition, 48 h
// values below are reported TGI
PROPERTY MEASURED: TGI (µM)

COMPOUND	PROPERTY MEASURED	MODIFIER	ASSAY RESULT
CCCCCCCCN(CCCCCCCC)CCCCCCNc1cc(OC)cc2cccnc12	TGI	=	33.7
CCN1C(=O)N(CC)C2Nn3c(s/c(=C\c4ccccc4Br)c3=O)=NC21 (stereo not given)	TGI	>	100
CC1Oc2c(c(=O)oc3ccccc23)[C@@]1(C)CC1C[C@H](C)C(=O)O1 (stereo not given in full)	TGI	>	100
O=C(c1ccccc1)c1ccc(Oc2ccc([N+](=O)[O-])cc2[N+](=O)[O-])cc1	TGI	=	8.57
CN(C)c1ccc(N=C2C=CC(=[N+](C)C)C=C2)cc1	TGI	>	100

====

// values below are reported TGI
System: NCI-H460 lung
METHOD SUMMARY: NCI tumour cell line growth inhibition, 48 h
PROPERTY MEASURED: TGI

COMPOUND	ASSAY RESULT
O=C(O)C[C@H]1CCCCC12CCOC2=O (stereo partly specified)	> 100 µM
c1ccc([P+](Cc2ccccc2C[P+](c2ccccc2)(c2ccccc2)c2ccccc2)(c2ccccc2)c2ccccc2)cc1	> 100 µM
COC(=O)/C=C(\C(=O)OC)c1c2c3c(cc(OC)c(OC)c3c3ccccc13)CCN2C	> 100 µM
Cn1cc(C2=C(c3cn(C)c4c([N+](=O)[O-])cccc34)C(=O)NC2=O)c2ccccc21	> 25 µM
CCc1c(Cc2[nH]c(Cc3[nH]c(C=O)c(C)c3CC)c(CC)c2CC)[nH]c(C=O)c1C	> 100 µM
NC(=O)c1ccc(NN=O)nc1	> 100 µM

====

Tested on: HS 578T breast
METHOD SUMMARY: NCI tumour cell line growth inhibition, 48 h
// values below are reported TGI

COMPOUND	TGI
O=P1(Oc2ccccc2)N(CCCl)CCN1c1ccccc1 (stereo unspecified)	> 100 µM
COC(=O)[C@@H]1CN(C(C)=O)C(=O)N1C(=O)OCc1ccccc1	> 100 µM
Cn1cc(C2=C(c3cn(C)c4c([N+](=O)[O-])cccc34)C(=O)NC2=O)c2ccccc21	> 25 µM
CCN1C(=O)C(C)S/C1=N\NC(=O)CSc1nc2ccccc2c(=O)n1CC (stereo unspecified)	> 100 µM
CC(=O)c1cc(C(=O)c2ccc3c(c2)Sc2ccccc2N3)c2c(C)cc(C)cn12	> 36 µM
O=C(O)c1ccc(NC(NC(=O)C(C(F)(F)F)C(F)(F)F)(C(F)(F)F)C(F)(F)F)cc1	> 100 µM

====

Tested on: SNB-19 CNS
METHOD SUMMARY: NCI tumour cell line growth inhibition, 48 h; in the data active means GI50 below about 0.43 µM; inactive means the rest
Possible outcomes: t = active, f = inactive

MOLECULE	EXPERIMENTAL TARGET	LABEL
COc1ccc(C(=O)COC(=O)[C@H](C[Se][Se]C[C@H](NC(=O)c2ccc(Br)cc2F)C(=O)OCC(=O)c2ccc(OC)cc2)NC(=O)c2ccc(Br)cc2F)cc1	SNB-19 CNS	f
O=C1NC(=O)C(=C/C=C/c2ccccc2)C(=O)N1	SNB-19 CNS	f
COc1ccc2c(c1)[nH]c(=O)c1c3cc(OC)ccc3cn21	SNB-19 CNS	t
COC1CCN(C(=O)c2cc(Cc3n[nH]c(=O)c4ccccc34)ccc2F)CC1	SNB-19 CNS	f
CS(=O)(=O)Nc1ccc(-c2cc(-c3ccccc3)cc(C(N)=O)c2N)cc1	SNB-19 CNS	f
CCN1C(=O)N(CC)C2Nn3c(s/c(=C\c4ccccc4Br)c3=O)=NC21 (stereo unspecified)	SNB-19 CNS	f

====

// values below are reported TGI
Tested on: NCI-H23 lung
METHOD SUMMARY: NCI tumour cell line growth inhibition, 48 h

COMPOUND	TGI
CO[C@@H]1C=C[C@@]23c4cc5c(cc4C(=O)O[C@H]2CN(C)[C@H]3C1)OCO5	> 100 µM
O=C(Nc1ccccc1)N(C1=NCC(CI)S1)c1ccc(F)cc1F (stereo not given)	> 100 µM
COc1cccc(/C=N/[N-]C(N)=O)c1[O-].[Ni+2].[OH3+].c1ccc(-c2ccccn2)nc1	> 100 µM
CC(NC(=O)C(N)CC(=O)O)NC(=O)C1CCC1 (stereo not given)	> 100 µM
Clc1cc(Cl)cc(C2ON=C(c3ccccc3)N2C23CC4CC(CC(C4)C2)C3)c1 (stereo not given)	> 10 µM

====

System: DMS 273 small cell lung
METHOD SUMMARY: NCI tumour cell line growth inhibition, 48 h
// values below are reported TGI

MOLECULE	TGI
O=C(c1ccccc1)N1C2CCC1C(C(F)(F)F)=C2C(F)(F)F	> 100 µM
CNC(=O)SCC(N)C(=O)O (stereo not drawn)	> 100 µM
CC(=O)c1ccc(OCC(O)CO)cc1 (stereo not drawn)	> 100 µM

====

System: MALME-3M melanoma
METHOD SUMMARY: NCI tumour cell line growth inhibition, 48 h
// values below are reported TGI
PROPERTY MEASURED: TGI

MOLECULE	PROPERTY MEASURED	ASSAY RESULT
O=[N+]([O-])c1ccc(Sc2ncnc3nc[nH]c23)c2nonc12	TGI	> 100 µM
CNCc1cc(OC)ccc1-c1ccc(OC)c(OC)c1OC	TGI	> 100 µM
NC(=O)CCC(N=C(N)c1csc(C2OC(CO)C(O)C2O)n1)C(=O)O (stereo not drawn)	TGI	> 100 µM
Cc1cc(O)ccc1C1=NN(c2ccc(S(C)(=O)=O)cc2)C(=O)CC1	TGI	> 100 µM
Cc1ccc(N=Nc2ccc(O)c(CN(C)C)c2)cc1	TGI	31.2 µM
O=CNc1ncn[nH]1	TGI	> 100 µM
N#Cc1ccccc1NC(=O)C(=O)c1c(O)c2ccccc2oc1=O	TGI	> 100 µM
O=C1Nc2c(C(F)(F)F)cccc2[C@@]1(c1ccc(O)cc1)c1ccc(OC(F)(F)F)cc1	TGI	25 µM
Cc1cc2c(cc1C)[n+](=O)c(C(=O)C/C(=N/OCCCc1ccccc1)C(=O)Nc1cc(Cl)ccc1Cl)c(C)n2[O-]	TGI	> 100 µM
CCOC(=O)CSC(=O)NCCCl	TGI	> 100 µM
CC(=O)NC(CCC(=O)C=[N+]=N)C(=O)O (stereo not drawn)	TGI	> 100 µM
CNC(=O)N(CCC#N)CCCN(C(=O)NC)c1ccccc1	TGI	> 100 µM
CCCCCCOc1ccc(C(=O)NO)cc1	TGI	34.4 µM
COC(=O)C(Cc1cc(OC)c(OC)c(OC)c1)c1ccc(OC)cc1 (stereo not drawn)	TGI	> 100 µM
COC1CCN(C(=O)c2cc(Cc3n[nH]c(=O)c4ccccc34)ccc2F)CC1	TGI	> 100 µM
CN(N)c1cc(=O)[nH]c(=O)[nH]1	TGI	> 100 µM
CCOC(=O)n1cc(C2=C(c3cn(C)c4ccccc34)COC2=O)c2ccccc21	TGI	> 100 µM
CCOC(=O)[C@@]12C[C@](/C=C/OC)(O[Si](C)(C)C)[C@@]13c1cc(OC)c(OC)cc1CCN3C(=O)C2O (stereo partly drawn)	TGI	> 100 µM
COC(=O)c1c(O)ccc2c1c1c(n2Cc2ccc(Cl)cc2Cl)C(=O)c2ccccc2C1=O	TGI	34.2 µM
CC1COc2c(N3CCN(C)CC3)c(F)cc3c(=O)c(C(=O)O)cn1c23 (stereo not drawn)	TGI	> 100 µM
Cc1oc2c(Cl)cc(O)c(Cl)c2c2cccc1-2	TGI	53.1 µM
CC1=C/C(=N\O)C(C(O)(C(F)(F)F)C(F)(F)F)C(C)(C)C1 (stereo not drawn)	TGI	> 10 µM
COC1C=COC2(C)Oc3c(C)c(O)c4c(O)c(c(/C=N/N5CCN(N)CC5)c(O)c4c3C2=O)NC(=O)C(C)=CC=CC(C)C(O)C(C)C(O)C(C)C(OC(C)=O)C1C (stereo not drawn)	TGI	> 100 µM
COc1cc(-c2nc3ccccc3s2)ccc1NC(=O)COc1ccc(Cl)cc1	TGI	> 100 µM
CCOC(=O)C1C2CCC(C2)C1(CCl)C(=O)OCC (stereo not drawn)	TGI	> 100 µM
CC(=O)Nc1cc(N(CCOS(C)(=O)=O)CCOS(C)(=O)=O)ccc1N=O	TGI	> 100 µM
CC(=O)NC1=C(NCCN(C)C)C(=O)c2ccccc2C1=O	TGI	14.3 µM
COc1c(C(=O)c2ccc([N+](=O)[O-])cc2)cc(C(C)(C)C)cc1C(C)(C)C	TGI	> 100 µM
CNC(=O)SCC(N)C(=O)O (stereo not drawn)	TGI	> 100 µM
NCCN1C(=O)CN=C(c2ccc(Cl)cc2)c2cc(Cl)ccc21	TGI	29.7 µM
COc1cc(OC)c2nc(C)c3c(c2c1)NCC3	TGI	24 µM
O=c1ccn(C2OC(CO)C(O)C2[Se]c2ccccc2)c(=O)[nH]1 (stereo not drawn)	TGI	> 100 µM
O=C(Nc1ccccc1)N(C1=NCC(CI)S1)c1ccc(F)cc1F (stereo not drawn)	TGI	> 100 µM
C=CC(C1=CC(=O)C(OC)=CC1=O)c1ccccc1 (stereo not drawn)	TGI	28.7 µM
NS(=O)(=O)c1ccc(NC2=CC(=O)C(=O)c3ccccc32)cc1	TGI	> 100 µM
CCCCCCCCOCC(O)COC(=O)CCCCCCC (stereo not drawn)	TGI	> 100 µM
COC(=O)C(=O)C(C(=O)C(=O)Nc1nc2ccc(C)cc2s1)c1nc2ccc([N+](=O)[O-])cc2[nH]c1=O (stereo not drawn)	TGI	> 100 µM
COc1cccc(/C=N/[N-]C(N)=O)c1[O-].[Ni+2].[OH3+].c1ccc(-c2ccccn2)nc1	TGI	> 100 µM
